target: UniProtKB P35414; experiment: hAPJ Calcium Flux Assay; assay type: cell-based; conditions: Chem-5 APJ stable cells, FLIPR calcium flux stimulation; read-out: hAPJ Ca^2+ Flux EC50
Sequence (P35414 whole entry): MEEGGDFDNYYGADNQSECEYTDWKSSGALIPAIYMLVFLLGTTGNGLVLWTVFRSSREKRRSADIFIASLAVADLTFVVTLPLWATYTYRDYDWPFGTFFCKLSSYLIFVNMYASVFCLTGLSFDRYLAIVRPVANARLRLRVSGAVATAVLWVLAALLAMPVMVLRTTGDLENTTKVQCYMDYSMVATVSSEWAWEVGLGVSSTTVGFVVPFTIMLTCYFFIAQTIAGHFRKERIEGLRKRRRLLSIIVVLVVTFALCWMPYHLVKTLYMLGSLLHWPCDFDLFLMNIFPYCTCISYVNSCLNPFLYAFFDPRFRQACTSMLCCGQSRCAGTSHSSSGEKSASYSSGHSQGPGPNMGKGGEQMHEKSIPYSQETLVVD
Where a SMILES comes first, the peptide text is derived from it. [ ]: non-standard residue; d: D form. pGlu = O=C1CC[C@@H](C(=O)O)N1; dNle = CCCC[C@@H](N)C(=O)O; Nle = CCCC[C@H](N)C(=O)O; Aib = CC(C)(N)C(=O)O
The entries below are paired with their reported EC50.
The number alone won't do; follow it with the unit.

compound="CCCC[C@H](NC(=O)[C@@H]1CCCN1C(=O)CNC(=O)[C@H](CCCCN)NC(=O)C(C)(C)NC(=O)[C@H](CO)NC(=O)[C@H](CC(C)C)NC(=O)[C@H](CCCNC(=N)N)NC(=O)[C@@H]1CCCN1C(=O)[C@H](CCCNC(=N)N)NC(=O)[C@@H]1CCC(=O)N1)C(=O)N[C@H](C)C(=O)N[C@@H](Cc1ccccc1)C(=O)O [Example 42, pE-R-P-R-L-S-Aib-K-G-P-Nle-a-F-OH] ([pGlu]RPRLS[Aib]KGP[Nle][dA]F-OH)" reported_metric=EC50 result="2.4 nM"

**Q:** Return value of EC50 for input CCCC[C@H](NC(=O)[C@@H]1CCCN1C(=O)CNC(=O)[C@@H](CCCCN)NC(=O)[C@H](Cc1c[nH]cn1)NC(=O)[C@@H](C)NC(=O)[C@H](CC(C)C)NC(=O)[C@H](CCCNC(=N)N)NC(=O)[C@@H]1CCCN1C(=O)[C@H](CCCNC(=N)N)NC(=O)[C@@H]1CCC(=O)N1)C(=O)N[C@H](C)C(=O)N[C@H](Cc1ccccc1)C(=O)O [Example 31, pE-R-P-R-L-a-H-k-G-P-Nle-a-f-OH] , no commentary.
**A:** 99 nM

**Q:** Return value of EC50 for input CCCC[C@@H](NC(=O)[C@@H]1CCCN1C(=O)CNC(=O)[C@@H](CCCCN)NC(=O)C(C)(C)NC(=O)[C@H](CO)NC(=O)[C@H](CC(C)C)NC(=O)[C@H](CCCNC(=N)N)NC(=O)[C@@H]1CCCN1C(=O)[C@H](CCCNC(=N)N)NC(=O)[C@@H]1CCC(=O)N1)C(=O)N[C@H](C)C(=O)N[C@H](Cc1ccccc1)C(=O)O [Example 5, pE-R-P-R-L-S-Aib-k-G-P-nle-a-f-OH] ([pGlu]RPRLS[Aib][dK]GP[dNle][dA][dF]-OH) , no commentary.
**A:** 79.9 nM
